B1: NP_006221.1 (parent)
chain: CQPISFSGFGAEDDDLGGLGLGP

variants of: B1; test: protein stability index of a GFP-peptide fusion (GPS, HEK-293T) (PSI 1-6); higher = more stable; conditions: c terminus: native;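 also: lentivirally expressed fusion library, cells FACS-sorted into six equal-sized GFP/DsRed ratio bins, PSI computed from sequencing read fractions per bin weighted by bin number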
REPORTED_PROPERTY: protein stability index

Sample answers from the record:
S5P : 2.42
F6G : 4.16
L21Q : 4.85
G18Y : 2.18
Q2N : 2.31

Here are 4 variants. What values of protein stability index were reported for them?
1. G17W
2. C1N
3. G17T
4. L16N

1: 2.46; 2: 2.28; 3: 2.1; 4: 2.07
